Target: T1, His9G-tagged human CD27 recombinant protein (human, UniProt P26842 21-191)
T1 construct: In-house, transient transfection of HEK293 cells; also called Human CD27/His
Assay: SPR Biacore 4000, antibody captured on anti-human Fc, His9G-tagged CD27 injected, 1:1 fit;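 note: Double-referenced SPR (blank anti-Fc surface and buffer injection subtracted), KD derived from association and dissociation rate constants, with human and cynomolgus CD27 as analytes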
MEASURED_QUANTITY: Kd (µM)
Expressed in µM, but write only the number.

Quick note, Kd for hCD27.131A VH7VL8 huIgG1 (antibody, V domains shown) VH: EIQLVQSGAEVKKPGASVKISCKASGYTFTNYGMNWVKQAPGQGLKWMGWINTNTGEPTYAEEFKGRFTFTLDTSATTAYLEISSLRSEDTAVYYCAREGDAMDYWGQGTTVTVSS VL: EIVLTQSPATLSASPGERVTLSCSASSSVSYMHWYQQKPGQAPKRWIYDTSKLASGVPARFSGSGSGTDYSLTISSMEPEDFAVYYCQQWNSYPFTFGQGTKLEIK landed at 0.0449
